Tested on: PC-12
Assay: Free radical scavenging activity of compound (50 uM) evaluated against OH in PC12 cells
Format: functional, cell-based
Conditions: Rattus norvegicus
Residues, ends and D or L forms follow the SMILES beside them. *: point of attachment. X1 = CC1(C)N(O)C(c2ccc(OCC(=O)*)cc2)=[N+]([O-])C1(C)C
reported metric: pEC50
When answering, recall that pEC50 equals minus log10 of the concentration in mol/L, and write that number alone.

Fill in the blank: the reported pEC50 of C[C@H](NC(=O)[C@@H]1CCCN1C(=O)[C@H](CCCN=C(N)N)NC(=O)CNC(=O)COc1ccc(C2=[N+]([O-])C(C)(C)C(C)(C)N2O)cc1)C(=O)N[C@@H](CCCCN)C(=O)O (X1-GRPAK-OH) is ____.
4.02

---

Species: Rattus norvegicus
Assay: Concentration of compound (1 umol/L) required to inhibit acetylcholine-induced vasorelaxation of rat aortic strip relative to control
Assay type: functional, Aorta
Residues, ends and D or L forms follow the SMILES beside them. *: point of attachment. X1 = CC1(C)N(O)C(c2ccc(OCC(=O)*)cc2)=[N+]([O-])C1(C)C
Reported Inhibition by item:

Example results:
Fill in the blank: the reported Inhibition of C[C@H](NC(=O)[C@@H]1CCCN1C(=O)[C@H](CCCN=C(N)N)NC(=O)CNC(=O)COc1ccc(C2=[N+]([O-])C(C)(C)C(C)(C)N2O)cc1)C(=O)N[C@@H](CCCCN)C(=O)O (X1-GRPAK-OH) is ____.
96%

Fill in the blank: the reported Inhibition of C[C@H](NC(=O)COc1ccc(C2=[N+]([O-])C(C)(C)C(C)(C)N2O)cc1)C(=O)N[C@@H](CCCN=C(N)N)C(=O)N1CCC[C@H]1C(=O)N[C@@H](C)C(=O)N[C@@H](CCCCN)C(=O)O (X1-ARPAK-OH) is ____.
92.9%

Fill in the blank: the reported Inhibition of C[C@H](N)C(=O)N[C@@H](CCCN=C(N)N)C(=O)N1CCC[C@H]1C(=O)N[C@@H](C)C(=O)N[C@@H](CCCCN)C(=O)O (H-ARPAK-OH) is ____.
9.5%

Fill in the blank: the reported Inhibition of C[C@H](NC(=O)[C@@H]1CCCN1C(=O)[C@H](CCCN=C(N)N)NC(=O)[C@H](CCC(N)=O)NC(=O)COc1ccc(C2=[N+]([O-])C(C)(C)C(C)(C)N2O)cc1)C(=O)N[C@@H](CCCCN)C(=O)O (X1-QRPAK-OH) is ____.
95.6%

Fill in the blank: the reported Inhibition of C[C@H](NC(=O)[C@@H]1CCCN1C(=O)[C@H](CCCN=C(N)N)NC(=O)[C@@H](N)CCC(N)=O)C(=O)N[C@@H](CCCCN)C(=O)O (H-QRPAK-OH) is ____.
8.9%

# evaluate next
Fill in the blank: the reported Inhibition of C[C@H](NC(=O)[C@@H]1CCCN1C(=O)[C@H](CCCN=C(N)N)NC(=O)CN)C(=O)N[C@@H](CCCCN)C(=O)O (H-GRPAK-OH) is ____.
9.2%
